- Measurement context: in cyclohexane, 298.15 K
Outcome measure: solubility (mole fraction)
The reply should be a number, written without any unit.

// field: solubility (mole fraction); key: Cc1cccc(C(=O)O)c1N ; value = 0.000204

---

- Measurement context: in n-propanol, 293.15 K
Outcome measure: solubility (mole fraction)
The reply should be a number, written without any unit.

// field: solubility (mole fraction); key: Cc1cccc(C(=O)O)c1N ; value = 0.0251

---

- Measurement context: in toluene, 308.15 K
Outcome measure: solubility (mole fraction)
The reply should be a number, written without any unit.

// field: solubility (mole fraction); key: Cc1cccc(C(=O)O)c1N ; value = 0.0049
